system: MOLT-4 leukemia; test: NCI-60 one-dose screen, 48 h (100 = growth as untreated, 0 = no growth, -100 = all killed); conditions: 10 µM
This is part of a sample that, as a whole, favours compounds with a hit. Of some 83,000 tested, about 20% had one in any assay. Active and inactive are the calls of the source. The calls were made as follows: active = growth percent below 10; inactive = the rest.
Each entry below carries its reported growth.
quantity_name: growth

# molecule, result
measured = [
    ("S=c1[nH]ccn1-c1ccccc1Cl", "97.4% (inactive)"),
    ("COC(=O)/C=C/C(=O)NC(N)=O", "100% (inactive)"),
    ("CC(C)=NNC(N)=S", "60.4% (inactive)"),
    ("COc1ccc2c(c1)CCc1c-2n[nH]c1-c1[nH]nc2c1CCc1cc(OC)ccc1-2", "50.4% (inactive)"),
    ("Cc1ccncc1C(N)=O", "95.2% (inactive)"),
    ("CCCCCCCCCCC(C)Br (stereo not given)", "95.3% (inactive)"),
    ("COc1ccccc1NC(=O)C1=C(C)NC(C)=C(C(=O)Nc2ccccc2OC)C1c1cccc([N+](=O)[O-])c1", "37.4% (inactive)"),
    ("CN(C)c1nc2c([nH]1)c(=O)n(C)c(=O)n2C", "99.6% (inactive)"),
    ("CCN(CC)CCNc1ccc(CO)c2sc3ccccc3c(=O)c12", "8.97% (active)"),
    ("COC(=O)c1[nH]c(=O)c(C#N)c(C(=O)OC)c1C(=O)c1ccccc1", "104% (inactive)"),
]
